What pIC50 was measured for each of the following?
Target: ENaC (Epithelial Sodium Channel) (Mus musculus, UniProt Q61180+Q9WU38+Q9WU39)
Construct: Mouse kidney M-1 cells were cultivated in DMEM containing 5% FCS and 5 μM dexamethasone; endogenous in cells
Sequence (Q61180 1-699): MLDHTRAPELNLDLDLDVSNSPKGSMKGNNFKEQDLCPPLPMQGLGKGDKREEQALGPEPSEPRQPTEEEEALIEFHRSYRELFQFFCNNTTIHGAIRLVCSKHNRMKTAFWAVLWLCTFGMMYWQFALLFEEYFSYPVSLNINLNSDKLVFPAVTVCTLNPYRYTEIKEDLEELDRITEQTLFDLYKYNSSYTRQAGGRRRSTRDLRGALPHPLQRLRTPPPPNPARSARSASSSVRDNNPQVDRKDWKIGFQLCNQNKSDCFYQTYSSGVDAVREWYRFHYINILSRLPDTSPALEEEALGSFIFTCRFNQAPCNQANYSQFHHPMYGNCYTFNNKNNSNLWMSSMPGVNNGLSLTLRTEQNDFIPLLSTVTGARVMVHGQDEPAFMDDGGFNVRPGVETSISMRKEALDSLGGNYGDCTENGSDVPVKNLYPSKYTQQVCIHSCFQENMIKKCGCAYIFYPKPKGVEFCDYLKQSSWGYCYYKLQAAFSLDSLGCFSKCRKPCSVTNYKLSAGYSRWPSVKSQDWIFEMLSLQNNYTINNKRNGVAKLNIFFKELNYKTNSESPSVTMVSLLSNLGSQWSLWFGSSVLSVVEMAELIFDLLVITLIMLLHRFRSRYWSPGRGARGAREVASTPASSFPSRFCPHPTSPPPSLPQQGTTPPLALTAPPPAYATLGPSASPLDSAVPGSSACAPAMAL
Sequence (Q9WU38 1-638): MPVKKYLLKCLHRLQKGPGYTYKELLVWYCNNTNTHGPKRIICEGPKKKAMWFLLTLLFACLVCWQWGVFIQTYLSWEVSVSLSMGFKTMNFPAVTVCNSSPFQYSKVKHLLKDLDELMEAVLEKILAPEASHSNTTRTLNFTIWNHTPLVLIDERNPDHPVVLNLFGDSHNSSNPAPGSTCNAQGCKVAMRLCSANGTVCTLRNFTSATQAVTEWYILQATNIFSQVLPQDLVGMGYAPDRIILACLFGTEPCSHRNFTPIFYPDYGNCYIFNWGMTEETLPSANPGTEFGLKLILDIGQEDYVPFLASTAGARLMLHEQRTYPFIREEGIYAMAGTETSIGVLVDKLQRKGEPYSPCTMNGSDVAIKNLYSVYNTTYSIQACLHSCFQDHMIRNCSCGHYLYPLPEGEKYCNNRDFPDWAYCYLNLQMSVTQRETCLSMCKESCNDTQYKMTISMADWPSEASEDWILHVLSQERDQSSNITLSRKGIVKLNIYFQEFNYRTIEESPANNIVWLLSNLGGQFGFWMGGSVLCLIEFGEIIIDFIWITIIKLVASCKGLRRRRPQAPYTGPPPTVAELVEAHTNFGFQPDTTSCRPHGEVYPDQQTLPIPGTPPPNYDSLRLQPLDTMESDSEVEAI
Sequence (Q9WU39 1-655): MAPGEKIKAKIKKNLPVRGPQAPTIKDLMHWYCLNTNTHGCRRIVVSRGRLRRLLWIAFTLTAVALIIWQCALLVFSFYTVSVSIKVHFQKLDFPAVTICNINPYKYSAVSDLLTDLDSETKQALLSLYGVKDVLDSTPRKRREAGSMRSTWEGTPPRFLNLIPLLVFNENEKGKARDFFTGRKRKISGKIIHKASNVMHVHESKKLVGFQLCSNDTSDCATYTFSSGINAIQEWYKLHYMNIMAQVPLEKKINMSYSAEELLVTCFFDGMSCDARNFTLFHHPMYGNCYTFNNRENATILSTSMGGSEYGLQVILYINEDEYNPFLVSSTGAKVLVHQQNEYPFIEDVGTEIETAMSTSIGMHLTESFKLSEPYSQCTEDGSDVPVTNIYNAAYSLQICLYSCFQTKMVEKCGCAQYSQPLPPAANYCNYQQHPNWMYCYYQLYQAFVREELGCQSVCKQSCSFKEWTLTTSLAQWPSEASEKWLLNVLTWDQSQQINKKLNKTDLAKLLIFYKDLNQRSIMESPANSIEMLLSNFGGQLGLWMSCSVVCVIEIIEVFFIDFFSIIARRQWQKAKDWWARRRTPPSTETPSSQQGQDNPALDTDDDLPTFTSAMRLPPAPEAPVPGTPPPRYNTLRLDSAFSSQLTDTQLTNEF
Assay: Ussing chamber assay: short circuit current (I_sc) in M-1 cells, inhibition of the amiloride sensitive I_SC
Conditions: Mouse kidney M-1 cells on transwell filters, compounds added to the apical solution, 37° C., voltage-clamp mode
Method: Mouse kidney M-1 cells were cultivated in DMEM containing 5% FCS and 5 μM dexamethasone for 10 to 12 days on polyester transwell filters. Filters were inserted into a teflon-coated well-plate which fit into the in-house ussing chamber system. […] Short circuit currents (I_sc) were measured in the voltage-clamp mode using an in-house built amplifier (Boehringer Ingelheim, Biberach) with the software package Lab View for data acquisition and analysis. […]
# log scale: pIC50 equals minus log10 of the concentration in mol/L

Problem: # query: pIC50 | item NC(=NC(=O)c1nc(Cl)c(N)nc1N)NC1CCN(Cc2ccc(Br)nc2)CC1 [Example 1.17] | system: ENaC (Epithelial Sodium Channel) (Mus musculus, UniProt Q61180+Q9WU38+Q9WU39)
Solution: 8.30

Problem: Param readout = pIC50; param system = ENaC (Epithelial Sodium Channel) (Mus musculus, UniProt Q61180+Q9WU38+Q9WU39); param query = COC(=O)c1ccc2nc(CN3CCC(NC(N)=NC(=O)c4nc(Cl)c(N)nc4N)CC3)cn2c1 [Example 1.7] ; response: value
Solution: 8.40

Problem: Find pIC50 (ENaC (Epithelial Sodium Channel) (Mus musculus, UniProt Q61180+Q9WU38+Q9WU39)) for the entry NC(=NC(=O)c1nc(Cl)c(N)nc1N)NC1CCN(Cc2ccnc(C(=O)N(CCO)CCO)c2)CC1 [Example 1.2]
Solution: 8.00

Problem: What reported pIC50 corresponds to N/C(=N\C(=O)c1nc(Br)c(N)nc1N)NC1CCN(Cc2ccnc(C(=O)O)c2)CC1 [Example 4.1] on ENaC (Epithelial Sodium Channel) (Mus musculus, UniProt Q61180+Q9WU38+Q9WU39)?
Solution: 7.80

Problem: Please tell me: pIC50 of N/C(=N\C(=O)c1nc(Cl)c(N)nc1N)NC1CCN(Cc2ccnc(C(=O)O)c2)CC1 [Example 3.1] , system ENaC (Epithelial Sodium Channel) (Mus musculus, UniProt Q61180+Q9WU38+Q9WU39)?
Solution: 7.68

Problem: ENaC (Epithelial Sodium Channel) (Mus musculus, UniProt Q61180+Q9WU38+Q9WU39) / pIC50 / N/C(=N\C(=O)c1nc(Cl)c(N)nc1N)NC1CCN(Cc2ccc(C(=O)O)s2)CC1 [Example 3.2] : value?
Solution: 7.51

Problem: Record lookup: for ENaC (Epithelial Sodium Channel) (Mus musculus, UniProt Q61180+Q9WU38+Q9WU39), what pIC50 belongs to NC(=NC(=O)c1nc(Cl)c(N)nc1N)NC1CCN(Cc2cscn2)CC1 [Example 1.9] ?
Solution: 7.77

Problem: Given the entry NC(=NC(=O)c1nc(Cl)c(N)nc1N)NC1CCN(Cc2nc3ccccc3[nH]2)CC1 [Example 1.16] , what pIC50 was observed with ENaC (Epithelial Sodium Channel) (Mus musculus, UniProt Q61180+Q9WU38+Q9WU39)?
Solution: 8.30
